measured.attribute: melting point

[
  {
    "molecule": "N=C(NNC(=O)c1ccccc1)C(Cl)(Cl)Cl",
    "value.measured": "170 to 172 °C"
  },
  {
    "molecule": "CC(=O)Nn1c(C)nc2cc(C(F)(F)F)ccc21",
    "value.measured": "214 to 216 °C"
  },
  {
    "molecule": "O=C(SCC1C(=O)OCC1c1ccc(Cl)cc1)c1ccccc1 (configuration not stated)",
    "value.measured": "99 to 101 °C"
  },
  {
    "molecule": "CCOC(=O)C(C(=O)Nc1cc(OC)c(OC)c(OC)c1)(c1ccccc1)c1ccccc1",
    "value.measured": "109 to 111 °C"
  },
  {
    "molecule": "Cc1ccc(S(=O)(=O)N2CCC[C@H]2C(=O)N2c3ccc(F)c(Cl)c3C(=O)CC2C)cc1 (some centres not stated)",
    "value.measured": "135 to 136 °C"
  },
  {
    "molecule": "CCc1ccc(-c2nc3ccccc3[nH]2)nc1",
    "value.measured": "172 to 173 °C"
  },
  {
    "molecule": "Cc1cc2c(nc(C)n2-c2ccc(C#N)cc2)c(C)n1",
    "value.measured": "260 to 262 °C"
  },
  {
    "molecule": "CCc1c2s[nH]c(=O)c2c(=O)n2ccc(N3CCC(N(C)C)C3)cc12 (configuration not stated)",
    "value.measured": "217 to 219 °C"
  },
  {
    "molecule": "O=C1CCC2(CN1)C(=O)C(=O)c1ccccc12 (configuration not stated)",
    "value.measured": "227 to 228 °C"
  },
  {
    "molecule": "CCCOC(=O)c1cn(CC)c2nc(N3CCNCC3)ncc2c1=O",
    "value.measured": "152 °C"
  },
  {
    "molecule": "O=C1NCCc2c1c1ccccc1n2Cc1ccccc1",
    "value.measured": "209 to 212 °C"
  },
  {
    "molecule": "CCOCn1c(S(=O)(=O)C(F)(F)C(F)Cl)c(C#N)c2ccccc21 (configuration not stated)",
    "value.measured": "97 to 100 °C"
  },
  {
    "molecule": "CNC(=S)N1Cc2ccccc2C2(Cc3ccccc3O2)C1 (configuration not stated)",
    "value.measured": "165 °C"
  },
  {
    "molecule": "CCCNS(=O)(=O)c1cccc(C)c1C#N",
    "value.measured": "74 to 77 °C"
  },
  {
    "molecule": "O=C(NCc1cccc(O)c1)c1[nH]c2ccc(Cl)cc2c1S(=O)(=O)c1cccc(Cl)c1",
    "value.measured": "230 to 231 °C"
  },
  {
    "molecule": "NC(=O)c1cc([N+](=O)[O-])c(Oc2ccccc2)c(S(N)(=O)=O)c1",
    "value.measured": "255 to 256 °C"
  },
  {
    "molecule": "Cn1c(=O)n(C(N)=O)c2ccccc21",
    "value.measured": "> 250 °C"
  },
  {
    "molecule": "COc1cc(N2CCC(N3CCN(C)CC3)CC2)ccc1Nc1ncc2ccc(Br)n2n1",
    "value.measured": "171 to 173 °C"
  },
  {
    "molecule": "CNC(=O)CCC(O)c1ccccc1 (configuration not stated)",
    "value.measured": "67 to 69 °C"
  },
  {
    "molecule": "COc1ccc(-c2nc3ccc(OC(F)(F)F)cc3[nH]2)cc1",
    "value.measured": "200 to 202 °C"
  },
  {
    "molecule": "CC(C)c1nc(C(C)C)c(CN2CCOCC2)c(-c2ccc(F)cc2)c1CO",
    "value.measured": "93.5 to 95.5 °C"
  },
  {
    "molecule": "CCOC(=O)C(=O)Nc1cc(C#N)c(Cl)cc1[N+](=O)[O-]",
    "value.measured": "80 to 82 °C"
  }
]
